Values compiled from PubChem BioAssay (NCATS).

Tested on: astro (control astrocytes)
Assay: Drug repurposing screens with cells derived from glioblastoma tumor samples (AID 1345199); further: nearly all actives have a fitted effect of over 40% in size
Settings: viability, ATP luminescence, 48 h; series mostly up to 45.9 µM
Results filed as inconclusive are left out. Active and inactive are the calls of the source. The call rests on the fitted dose curve; in most records, active means well fitted inhibition curve with a large enough effect; inconclusive means small, poorly fitted or top-dose-only effect; inactive means flat fitted curve, though single readings scatter.
Outcome codes: active, inactive

{"MOLECULE": "Nc1ccc(N)cc1", "ASSAY TARGET": "astro", "CLASSIFICATION": "inactive"}
{"MOLECULE": "CCNc1nc(Cl)nc(NCC)n1", "ASSAY TARGET": "astro", "CLASSIFICATION": "inactive"}
{"MOLECULE": "CCCC(C)C1(CC)C(=O)N=C(S)NC1=O (stereo not drawn)", "ASSAY TARGET": "astro", "CLASSIFICATION": "inactive"}
{"MOLECULE": "COCC(=O)N(c1c(C)cccc1C)C(C)C(=O)OC (stereo not drawn)", "ASSAY TARGET": "astro", "CLASSIFICATION": "inactive"}
{"MOLECULE": "CC(=O)OC1(c2ccccc2)CCN(CCc2ccccc2)CC1", "ASSAY TARGET": "astro", "CLASSIFICATION": "inactive"}
{"MOLECULE": "Oc1ccc([C@H]2CNCc3c2ccc(O)c3O)cc1O", "ASSAY TARGET": "astro", "CLASSIFICATION": "inactive"}
{"MOLECULE": "CN1C(=O)CN=C(c2ccccc2)c2cc([N+](=O)[O-])ccc21", "ASSAY TARGET": "astro", "CLASSIFICATION": "inactive"}
{"MOLECULE": "O=C(CCl)c1ccc(Cl)cc1Cl", "ASSAY TARGET": "astro", "CLASSIFICATION": "active"}
{"MOLECULE": "CN1C[C@@H](NS(=O)(=O)N(C)C)C[C@@H]2c3cccc4c3c(cn4C)C[C@H]21", "ASSAY TARGET": "astro", "CLASSIFICATION": "inactive"}
{"MOLECULE": "CCN(Cc1ccc(Cl)nc1)/C(=C/[N+](=O)[O-])NC", "ASSAY TARGET": "astro", "CLASSIFICATION": "inactive"}
{"MOLECULE": "CCC(=O)O[C@H]1CC[C@H]2[C@@H]3CCC4=CC(=O)CC[C@]4(C)[C@H]3CC[C@]12C", "ASSAY TARGET": "astro", "CLASSIFICATION": "inactive"}
{"MOLECULE": "CCCN(CCC)CCc1c[nH]c2ccccc12", "ASSAY TARGET": "astro", "CLASSIFICATION": "inactive"}
{"MOLECULE": "Cc1nnc2n1-c1sc(CCc3ccc(CC(C)C)cc3)cc1C(c1ccccc1Cl)=NC2C (stereo not drawn)", "ASSAY TARGET": "astro", "CLASSIFICATION": "active"}
{"MOLECULE": "Cc1c(Cl)c(=O)oc2cc(OP(=O)(OCCCl)OCCCl)ccc12", "ASSAY TARGET": "astro", "CLASSIFICATION": "inactive"}
{"MOLECULE": "CC(C)NCC(O)c1ccc(N)c(C#N)c1 (stereo not drawn)", "ASSAY TARGET": "astro", "CLASSIFICATION": "inactive"}
{"MOLECULE": "Cc1ccc(N=CN(C)C=Nc2ccc(C)cc2C)c(C)c1", "ASSAY TARGET": "astro", "CLASSIFICATION": "inactive"}
{"MOLECULE": "CN(C)CCc1c[nH]c2cccc(O)c12", "ASSAY TARGET": "astro", "CLASSIFICATION": "inactive"}
{"MOLECULE": "Cc1cccc(Cc2cnc[nH]2)c1C", "ASSAY TARGET": "astro", "CLASSIFICATION": "inactive"}
{"MOLECULE": "COP(=O)(OC)C(O)C(Cl)(Cl)Cl (stereo not drawn)", "ASSAY TARGET": "astro", "CLASSIFICATION": "inactive"}
{"MOLECULE": "C[N+](C)(C)CCOC(=O)C(O)(c1ccccc1)c1ccccc1", "ASSAY TARGET": "astro", "CLASSIFICATION": "inactive"}
{"MOLECULE": "CC(CC(C#N)(c1ccccc1)c1ccccc1)N(C)C (stereo not drawn)", "ASSAY TARGET": "astro", "CLASSIFICATION": "inactive"}
{"MOLECULE": "COc1cc(C[C@@H](C)N)c(OC)cc1Br", "ASSAY TARGET": "astro", "CLASSIFICATION": "inactive"}
{"MOLECULE": "CN(C)C(=O)Oc1cc(OC(=O)N(C)C)cc(C(O)CNC(C)(C)C)c1 (stereo not drawn)", "ASSAY TARGET": "astro", "CLASSIFICATION": "inactive"}
{"MOLECULE": "c1cc2c(c(N3CCNCC3)c1)OCCO2", "ASSAY TARGET": "astro", "CLASSIFICATION": "inactive"}
{"MOLECULE": "COc1ccc(C(=O)N2CCCC2=O)cc1", "ASSAY TARGET": "astro", "CLASSIFICATION": "inactive"}
{"MOLECULE": "COP(=S)(OC)Oc1ccc(S(N)(=O)=O)cc1", "ASSAY TARGET": "astro", "CLASSIFICATION": "inactive"}
{"MOLECULE": "NC(=O)OCCCc1ccccc1", "ASSAY TARGET": "astro", "CLASSIFICATION": "inactive"}
{"MOLECULE": "COc1ccc2[nH]cc(CCN(C(C)C)C(C)C)c2c1", "ASSAY TARGET": "astro", "CLASSIFICATION": "inactive"}
{"MOLECULE": "CCC(=O)OC1(c2ccccc2)CCN(C)CC1", "ASSAY TARGET": "astro", "CLASSIFICATION": "inactive"}
{"MOLECULE": "CNC(=O)NC(O)C(Cl)(Cl)Cl (stereo not drawn)", "ASSAY TARGET": "astro", "CLASSIFICATION": "inactive"}
{"MOLECULE": "CN1CCc2cc(Cl)c(O)cc2[C@H]2c3ccccc3CC[C@@H]21", "ASSAY TARGET": "astro", "CLASSIFICATION": "inactive"}
{"MOLECULE": "NCc1cccnc1", "ASSAY TARGET": "astro", "CLASSIFICATION": "inactive"}
{"MOLECULE": "CC(C)=CCN1CC[C@@]2(C)c3cc(O)ccc3C[C@@H]1[C@@H]2C", "ASSAY TARGET": "astro", "CLASSIFICATION": "inactive"}
{"MOLECULE": "C[C@H]1CNCCc2ccc(Cl)cc21", "ASSAY TARGET": "astro", "CLASSIFICATION": "inactive"}
{"MOLECULE": "CCCCCCCCCCCC[N+](C)(C)CCOc1ccccc1", "ASSAY TARGET": "astro", "CLASSIFICATION": "active"}
{"MOLECULE": "CN(C)CCc1c[nH]c2ccccc12", "ASSAY TARGET": "astro", "CLASSIFICATION": "inactive"}
{"MOLECULE": "Oc1c(Br)cc(Br)cc1Br", "ASSAY TARGET": "astro", "CLASSIFICATION": "inactive"}
{"MOLECULE": "COc1ccc(CN2CCNCC2)c(OC)c1OC", "ASSAY TARGET": "astro", "CLASSIFICATION": "inactive"}
{"MOLECULE": "CCCOC(=O)Cc1ccc(OCC(=O)N(CC)CC)c(OC)c1", "ASSAY TARGET": "astro", "CLASSIFICATION": "inactive"}
{"MOLECULE": "C[N+]1(C)[C@@H]2CC[C@H]1CC(OC(=O)C(CO)c1ccccc1)C2 (stereo partly drawn)", "ASSAY TARGET": "astro", "CLASSIFICATION": "inactive"}
{"MOLECULE": "COc1ccc(OC)c(CC(C)N)c1 (stereo not drawn)", "ASSAY TARGET": "astro", "CLASSIFICATION": "inactive"}
{"MOLECULE": "CC(Cc1ccccc1)NCc1ccccc1Cl (stereo not drawn)", "ASSAY TARGET": "astro", "CLASSIFICATION": "inactive"}
{"MOLECULE": "O=C(O)c1nn(Cc2ccc(Cl)cc2Cl)c2ccccc12", "ASSAY TARGET": "astro", "CLASSIFICATION": "inactive"}
{"MOLECULE": "NC(=O)CN1CCCC1=O", "ASSAY TARGET": "astro", "CLASSIFICATION": "inactive"}
{"MOLECULE": "CN(C)CCc1c[nH]c2ccc(O)cc12", "ASSAY TARGET": "astro", "CLASSIFICATION": "inactive"}
{"MOLECULE": "NC1(c2ccccc2)CCCCC1", "ASSAY TARGET": "astro", "CLASSIFICATION": "inactive"}
{"MOLECULE": "O=C(O)CCCCCCNC1c2ccccc2CCc2ccccc21", "ASSAY TARGET": "astro", "CLASSIFICATION": "inactive"}
{"MOLECULE": "COc1cc(CC(C)N)cc2c1OCO2 (stereo not drawn)", "ASSAY TARGET": "astro", "CLASSIFICATION": "inactive"}
{"MOLECULE": "O=C(N[C@H]1N=C(c2ccccc2F)c2cccc3c2N(CC3)C1=O)c1cc2ccccc2[nH]1", "ASSAY TARGET": "astro", "CLASSIFICATION": "inactive"}
{"MOLECULE": "CCC1(c2cnc[nH]2)Cc2ccccc2C1", "ASSAY TARGET": "astro", "CLASSIFICATION": "inactive"}
{"MOLECULE": "OC(O)C(Cl)(Cl)Cl", "ASSAY TARGET": "astro", "CLASSIFICATION": "inactive"}
{"MOLECULE": "CCOC(=O)NC(O)C(Cl)(Cl)Cl (stereo not drawn)", "ASSAY TARGET": "astro", "CLASSIFICATION": "inactive"}
{"MOLECULE": "C[C@]12CC[C@H]3[C@@H](CC=C4C[C@@H](O)CC[C@@]43C)[C@@H]1CC[C@@H]2O", "ASSAY TARGET": "astro", "CLASSIFICATION": "inactive"}
